These entries and their values trace back to patent US6255347A.

# Test system: APPs secretion by NIH 3T3 cell lines
# setup conditions: 50 μM, 20 h culture, n = 2, mean ± S.D.
Consider the following molecules; for each one, report its Density of APPs band.
Could you keep your reply to the number by itself?

Ask: Give its Density of APPs band value. Item: C[C@H](C(=O)O)c1ccc(-c2ccccc2)c(F)c1
Result: 2.37

Ask: Query (molecule): CC(C)Cc1ccc(C(C)C(=O)O)cc1 (racemic) ; field requested: Density of APPs band
Result: 6.073

Ask: Reported Density of APPs band for CC(=O)Oc1ccccc1C(=O)O : what is it?
Result: 2.92

Ask: What does the data say about its Density of APPs band? Entry: C[C@@H](C(=O)O)c1ccc(-c2ccccc2)c(F)c1
Result: 3.30
